Molecular target: (H+/K+)-ATPase (Canis lupus familiaris)
Construct: The microsomes retained at the 15%-30% sucrose interface, after centrifugation at 250,000×g for sixty minutes, were used as the source of (H^+/K^+)-ATPase; from tissue; host or cells: gastric glandular mucosa of mongrel dogs (microsomal fraction, lyophilized)
Sequence (P50996 whole entry): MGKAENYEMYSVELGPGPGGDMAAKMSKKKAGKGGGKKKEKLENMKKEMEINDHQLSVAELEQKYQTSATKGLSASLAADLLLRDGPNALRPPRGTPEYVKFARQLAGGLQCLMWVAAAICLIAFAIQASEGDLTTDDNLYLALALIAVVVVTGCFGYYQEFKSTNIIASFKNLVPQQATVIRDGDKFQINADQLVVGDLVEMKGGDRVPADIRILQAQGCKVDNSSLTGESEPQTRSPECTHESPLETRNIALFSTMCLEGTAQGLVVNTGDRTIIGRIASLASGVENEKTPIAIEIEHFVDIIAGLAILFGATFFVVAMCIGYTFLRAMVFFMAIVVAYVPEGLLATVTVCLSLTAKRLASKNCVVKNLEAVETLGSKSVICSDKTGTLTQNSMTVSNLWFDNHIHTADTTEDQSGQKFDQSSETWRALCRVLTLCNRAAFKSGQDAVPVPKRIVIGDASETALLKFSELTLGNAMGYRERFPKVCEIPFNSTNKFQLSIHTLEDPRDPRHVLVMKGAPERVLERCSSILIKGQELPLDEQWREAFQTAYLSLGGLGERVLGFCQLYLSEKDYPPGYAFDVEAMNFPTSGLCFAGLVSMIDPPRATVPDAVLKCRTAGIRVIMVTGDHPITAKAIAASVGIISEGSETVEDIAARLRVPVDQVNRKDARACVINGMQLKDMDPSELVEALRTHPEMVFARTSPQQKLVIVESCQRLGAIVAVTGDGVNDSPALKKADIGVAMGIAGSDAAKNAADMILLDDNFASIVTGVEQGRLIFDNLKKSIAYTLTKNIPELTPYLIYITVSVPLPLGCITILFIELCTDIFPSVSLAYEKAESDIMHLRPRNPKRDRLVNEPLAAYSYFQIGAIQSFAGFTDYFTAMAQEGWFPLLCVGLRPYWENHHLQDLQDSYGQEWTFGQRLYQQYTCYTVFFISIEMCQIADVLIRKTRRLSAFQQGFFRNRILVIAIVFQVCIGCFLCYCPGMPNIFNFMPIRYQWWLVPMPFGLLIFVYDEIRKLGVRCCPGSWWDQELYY
Sequence (P33704 whole entry partner): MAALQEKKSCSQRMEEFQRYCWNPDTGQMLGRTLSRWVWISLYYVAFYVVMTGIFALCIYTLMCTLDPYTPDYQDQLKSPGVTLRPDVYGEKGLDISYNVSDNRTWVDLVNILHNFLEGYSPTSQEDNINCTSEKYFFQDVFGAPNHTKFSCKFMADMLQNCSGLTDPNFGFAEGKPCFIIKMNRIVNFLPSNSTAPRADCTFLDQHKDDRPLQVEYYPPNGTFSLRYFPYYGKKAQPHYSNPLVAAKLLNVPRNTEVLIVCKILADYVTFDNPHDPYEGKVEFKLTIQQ
Experiment: Inhibition of (H+/K+)-ATPase from canine gastric mucosa (inorganic phosphate release)
Type: biochemical
Conditions: canine gastric mucosa microsomes, pH 6.0, 30 min preincubation at 37° C.; read-out: (H+/K+)-ATPase IC50
pIC50: −log10 of the molar value.
assayReadout: pIC50

In the examples that follow, each entry is paired with its recorded pIC50.
| compound | numericValue |
| --- | --- |
| CCNc1cccc(C[S+]([O-])c2nc3ccccc3[nH]2)n1 (centres unmarked) [Example 109] | 4.70 |
| Cc1cccc(C[S+]([O-])c2nc3ccccc3[nH]2)c1N (centres unmarked) [Example 28] | 5.49 |

P = COc1cc2nc([S+]([O-])Cc3cccc(N)n3)[nH]c2cc1OC (centres unmarked) [Example 99, hydrate]
Q = Cc1cccc2[nH]c([S+]([O-])Cc3ccccc3N)nc12.Cc1cccc2[nH]c([S+]([O-])Cc3ccccc3N)nc12.O (centres unmarked) [Example 8, hemihydrate]
Would you kindly point out which of P and Q has the smaller pIC50 figure? The response must carry the label of the picked entry.
P

Each recorded value in this set is attributed to patent US6906078B2.
